biological target: UniProt Q9HCR9; assay: Inhibition of PDE11A (unknown origin) at 2 uM
Sequence (Q9HCR9 whole entry, looked up): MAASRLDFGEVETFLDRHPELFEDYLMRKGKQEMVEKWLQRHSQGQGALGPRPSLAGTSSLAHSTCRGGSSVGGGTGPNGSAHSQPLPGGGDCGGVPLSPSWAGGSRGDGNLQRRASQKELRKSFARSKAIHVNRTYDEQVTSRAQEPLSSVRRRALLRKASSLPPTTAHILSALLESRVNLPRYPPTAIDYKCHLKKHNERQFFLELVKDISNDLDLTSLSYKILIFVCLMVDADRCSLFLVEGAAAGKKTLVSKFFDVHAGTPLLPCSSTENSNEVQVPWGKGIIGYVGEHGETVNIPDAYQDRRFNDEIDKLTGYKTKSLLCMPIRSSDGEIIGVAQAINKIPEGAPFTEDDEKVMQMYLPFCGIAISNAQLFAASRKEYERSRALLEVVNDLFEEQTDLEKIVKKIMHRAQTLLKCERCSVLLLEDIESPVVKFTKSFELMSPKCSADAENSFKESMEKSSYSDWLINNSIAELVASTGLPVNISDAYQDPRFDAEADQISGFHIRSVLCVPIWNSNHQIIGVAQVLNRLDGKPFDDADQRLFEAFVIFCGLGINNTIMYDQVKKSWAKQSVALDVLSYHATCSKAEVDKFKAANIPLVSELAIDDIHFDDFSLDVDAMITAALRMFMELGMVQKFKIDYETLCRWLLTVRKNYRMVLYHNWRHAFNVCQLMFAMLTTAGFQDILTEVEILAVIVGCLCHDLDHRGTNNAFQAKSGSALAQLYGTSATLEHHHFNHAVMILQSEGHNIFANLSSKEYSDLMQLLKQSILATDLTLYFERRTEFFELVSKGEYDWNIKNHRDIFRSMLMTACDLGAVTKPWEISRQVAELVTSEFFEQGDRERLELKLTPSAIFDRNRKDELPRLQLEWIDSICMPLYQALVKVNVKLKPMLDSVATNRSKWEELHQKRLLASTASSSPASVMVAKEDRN
endpoint label: inhibition (%)
Numeric answer only, unit % assumed.

Example entries begin here.
Cc1cc2c3ccccc3cc(CCc3nc(-c4ccccc4)cn3C)n2n1 13
Cn1cc(-c2ccccc2)nc1CCc1cc2ncccc2c2cc(C(F)(F)F)nn12 25
COCc1cc2c3cccnc3cc(CCc3nc(-c4ccccc4)cn3C)n2n1 70

Given the compound `Cc1cc2c3ccccc3cc(CCc3nc4ccccc4n3C)n2n1` , what is its reported inhibition?
12

Given the compound `Cc1cc2c3ccncc3cc(CCc3nc(-c4ccccc4)cn3C)n2n1` , what is its reported inhibition?
37
